These data points were gathered from ChEMBL document CHEMBL5241112.

Test system: Bacillus subtilis
Test: Antibacterial activity against Bacillus subtilis assessed as diameter of inhibition zone at 100 ug/ml by disc diffusion method
Format: functional
Conditions: read-out: DIZ
Recorded measurements of zone of inhibition at 100 µg/mL, one per entry
I'd appreciate it if you included the unit after the number.

Below are worked cases with known answers.
State the recorded zone of inhibition at 100 µg/mL for this entry: CCOC(=O)C1=C(C)Oc2nc(C)n(Cc3cn(-c4cccc(C(F)(F)F)c4)nn3)c(=O)c2C1c1ccc([N+](=O)[O-])cc1 (centres undefined)
12 mm

State the recorded zone of inhibition at 100 µg/mL for this entry: CCOC(=O)C1=C(C)Oc2nc(C)n(Cc3cn(-c4ccc([N+](=O)[O-])cc4)nn3)c(=O)c2C1c1ccc([N+](=O)[O-])cc1 (centres undefined)
12.5 mm

State the recorded zone of inhibition at 100 µg/mL for this entry: CCOC(=O)C1=C(C)Oc2nc(C)n(Cc3cn(-c4ccc(Cl)cc4)nn3)c(=O)c2C1c1ccc([N+](=O)[O-])cc1 (centres undefined)
13 mm

Attention now turns to another entry.
State the recorded zone of inhibition at 100 µg/mL for this entry: CC1(C)S[C@@H]2[C@H](NC(=O)[C@H](N)c3ccc(O)cc3)C(=O)N2[C@H]1C(=O)O [AMOXICILLIN]
15.5 mm
